target: T1, Aβ (1-42) peptide (human); test: SPR, immobilized fibers;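 note: biacore SPR using in vitro grown Aβ1-40 or Aβ1-42 fibrils immobilized on the chip with Fab analytes, KD from koff/kon fits or equilibrium isotherms based on total Fab concentration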
T1 construct: also called Aβ1-42 fibers; Aβ4

{"columns": ["binder", "unit-of-measure", "Kd"],
 "data": [
  ["MS-Roche #7.11.H1 Fab (Fab, V domains shown) VH: QVQLVESGGGLVQPGGSLRLSCAASGFTFSSYAMSWVRQAPGKGLEWVSGINAAGFRTYYADSVKGRFTISRDNSKNTLYLQMNSLRAEDTAVYYCARGKGNTHKPYGYVRYFDVWGQGTLVTVSS VL: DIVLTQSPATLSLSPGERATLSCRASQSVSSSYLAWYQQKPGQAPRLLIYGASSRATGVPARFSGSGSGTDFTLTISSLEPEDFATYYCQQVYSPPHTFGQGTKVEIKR", "nM", 6.7],
  ["MS-Roche #7.2.H4 Fab (Fab, V domains shown) VH: QVQLVESGGGLVQPGGSLRLSCAASGFTFSSYAMSWVRQAPGKGLEWVSAINSKGSRIYYADSVKGRFTISRDNSKNTLYLQMNSLRAEDTAVYYCARGKGNTHKPYGYVRYFDVWGQGTLVTVSS VL: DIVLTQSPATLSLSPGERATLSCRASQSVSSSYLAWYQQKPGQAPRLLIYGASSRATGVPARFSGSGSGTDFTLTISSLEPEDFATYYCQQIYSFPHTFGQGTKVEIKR", "nM", 5],
  ["MS-Roche #7.12.H1 Fab (Fab, V domains shown) VH: QVQLVESGGGLVQPGGSLRLSCAASGFTFSSYGMSWVRQAPGKGLEWVSNINGNGNRKYYADSVKGRFTISRDNSKNTLYLQMNSLRAEDTAVYYCARGKGNTHKPYGYVRYFDVWGQGTLVTVSS VL: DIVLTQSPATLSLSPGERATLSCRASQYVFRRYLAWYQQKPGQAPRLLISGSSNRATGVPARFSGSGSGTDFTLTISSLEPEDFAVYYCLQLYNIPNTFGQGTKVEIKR", "nM", 0.8],
  ["MS-Roche #7.12 Fab (Fab, V domains shown) VH: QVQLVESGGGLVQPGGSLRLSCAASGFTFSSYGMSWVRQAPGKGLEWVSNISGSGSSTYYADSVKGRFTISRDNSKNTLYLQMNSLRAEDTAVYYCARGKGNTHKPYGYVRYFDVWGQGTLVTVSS VL: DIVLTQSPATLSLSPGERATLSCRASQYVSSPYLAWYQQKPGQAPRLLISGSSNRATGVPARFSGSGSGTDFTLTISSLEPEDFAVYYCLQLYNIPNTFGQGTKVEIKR", "nM", 60]
]}
